Reference for the values: patent US20240174632A1

Molecular target: α4β7 (Homo sapiens, UniProt P13612+P26010)
Construct: endogenous in cells; host or cells: RPMI 8866 cells
Sequence (P13612 34-1032): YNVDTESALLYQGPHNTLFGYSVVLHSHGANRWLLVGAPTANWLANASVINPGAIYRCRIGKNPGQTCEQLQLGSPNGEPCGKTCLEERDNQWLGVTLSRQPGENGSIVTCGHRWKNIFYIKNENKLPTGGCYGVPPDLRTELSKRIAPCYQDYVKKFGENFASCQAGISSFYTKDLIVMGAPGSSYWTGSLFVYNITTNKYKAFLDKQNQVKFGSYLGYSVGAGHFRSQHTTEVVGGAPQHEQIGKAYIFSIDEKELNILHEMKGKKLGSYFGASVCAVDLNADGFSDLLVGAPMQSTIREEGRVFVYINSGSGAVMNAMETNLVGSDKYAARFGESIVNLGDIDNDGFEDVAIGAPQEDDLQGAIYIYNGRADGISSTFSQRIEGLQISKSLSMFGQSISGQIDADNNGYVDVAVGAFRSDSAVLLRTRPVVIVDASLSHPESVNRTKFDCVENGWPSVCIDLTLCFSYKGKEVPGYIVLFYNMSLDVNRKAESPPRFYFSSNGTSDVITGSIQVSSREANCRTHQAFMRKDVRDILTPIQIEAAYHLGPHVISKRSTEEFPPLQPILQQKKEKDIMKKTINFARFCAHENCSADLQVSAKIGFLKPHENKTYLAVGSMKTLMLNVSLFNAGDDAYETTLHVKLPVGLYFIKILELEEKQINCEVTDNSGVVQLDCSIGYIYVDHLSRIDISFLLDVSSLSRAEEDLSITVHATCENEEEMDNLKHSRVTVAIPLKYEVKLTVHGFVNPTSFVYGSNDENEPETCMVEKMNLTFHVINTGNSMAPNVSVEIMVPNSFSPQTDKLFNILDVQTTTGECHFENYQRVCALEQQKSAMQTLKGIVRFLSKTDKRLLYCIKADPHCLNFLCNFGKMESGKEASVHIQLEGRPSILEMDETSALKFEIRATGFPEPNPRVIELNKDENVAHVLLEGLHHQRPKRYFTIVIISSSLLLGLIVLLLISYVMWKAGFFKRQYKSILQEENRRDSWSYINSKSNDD
Sequence (P26010 20-798): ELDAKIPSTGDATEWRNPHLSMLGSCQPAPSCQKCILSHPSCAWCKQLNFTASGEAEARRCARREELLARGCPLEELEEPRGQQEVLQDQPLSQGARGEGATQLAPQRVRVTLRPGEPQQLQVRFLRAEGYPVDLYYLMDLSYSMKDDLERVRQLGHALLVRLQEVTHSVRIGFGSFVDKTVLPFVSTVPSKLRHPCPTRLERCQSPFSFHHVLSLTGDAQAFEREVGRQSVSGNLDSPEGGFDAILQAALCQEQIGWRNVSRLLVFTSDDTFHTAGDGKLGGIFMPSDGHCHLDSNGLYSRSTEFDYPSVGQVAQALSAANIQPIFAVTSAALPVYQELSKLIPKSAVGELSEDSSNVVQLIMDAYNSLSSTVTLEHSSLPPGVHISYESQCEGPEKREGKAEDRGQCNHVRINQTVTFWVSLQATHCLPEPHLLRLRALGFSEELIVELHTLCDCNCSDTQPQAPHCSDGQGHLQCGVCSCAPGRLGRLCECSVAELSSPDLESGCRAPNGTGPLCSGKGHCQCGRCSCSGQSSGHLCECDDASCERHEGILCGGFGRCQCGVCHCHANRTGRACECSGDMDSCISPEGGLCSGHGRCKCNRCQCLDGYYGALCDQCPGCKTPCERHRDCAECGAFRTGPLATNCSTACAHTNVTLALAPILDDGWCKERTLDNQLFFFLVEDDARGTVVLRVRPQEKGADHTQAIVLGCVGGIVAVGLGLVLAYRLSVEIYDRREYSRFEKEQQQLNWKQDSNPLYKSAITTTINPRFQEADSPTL
Assay: Cell-based ligand binding assay (LBA), RPMI 8866 cells, competition with soluble MAdCAM-1-Fc
Conditions: MAdCAM-1-Fc Dylight 650, flow cytometry, Tables 3A, 3B, 4, read-out: LB Assay (Example 6) IC50
Description: Three in vitro assays were used to examine the α4β7 mechanistic process used by cells: 1) ligand:receptor affinity, 2) the avidity of those interactions on a cell's surface, and 3) how those interactions fare under an imposing force. In Example 5, a Fluorescence Polarization (FP) assay is used to measure compound activity through binding competition with the fluorescein-labeled peptide. […] Unattached cells are removed and the remaining adherent cells are quantified. […]
OBSERVABLE: IC50

>>> assay_value("COc1ccc(C)c(-c2cc(C)c(F)c([C@H](CC(=O)O)NC(=O)C(CC(C)C)n3cc(CCN4CCC4)c(C(F)(F)F)cc3=O)c2)c1C (single isomer, unassigned) [AG-P2]")
"≤ 10 nM"
